Value source: ChEMBL document CHEMBL1128120

measured on: Neutrophil elastase (Homo sapiens) (UniProt P08246)
Sequence (whole entry): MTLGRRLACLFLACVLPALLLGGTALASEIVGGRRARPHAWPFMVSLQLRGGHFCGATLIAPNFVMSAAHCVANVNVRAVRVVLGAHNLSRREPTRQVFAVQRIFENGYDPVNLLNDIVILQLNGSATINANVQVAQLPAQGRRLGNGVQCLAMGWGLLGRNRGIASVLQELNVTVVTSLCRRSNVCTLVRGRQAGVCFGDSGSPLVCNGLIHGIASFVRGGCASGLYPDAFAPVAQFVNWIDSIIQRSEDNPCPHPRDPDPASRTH
procedure text: Compound was tested for inhibition of Human Leukocyte Elastase enzyme, expressed in term of bimolecular rate constant (Kinact/Ki)
Entries and their Ratio
Give just the numeric value; M⁻¹ s⁻¹ need not be written.

Here is how some compounds turned out for Ratio.
- compound: "CCC[C@@H](NC(=O)N1C(=O)C(CC)(CC)[C@@H]1Oc1ccc(CP(=O)(OCC)OCC)cc1)c1ccc(C)cc1"
  result unit: "M⁻¹ s⁻¹"
  Ratio: "1.16e+06"
- compound: "CCC[C@@H](NC(=O)N1C(=O)C(CC)(CC)[C@@H]1Oc1ccc(CC(=O)O)cc1)c1ccc(C)cc1"
  result unit: "M⁻¹ s⁻¹"
  Ratio: 622000
- compound: "CCC[C@@H](NC(=O)N1C(=O)C(CC)(CC)[C@@H]1Oc1ccc(CP(=O)(O)O)cc1)c1ccc(C)cc1"
  result unit: "M⁻¹ s⁻¹"
  Ratio: 217000
- compound: "CCC[C@@H](NC(=O)N1C(=O)C(CC)(CC)[C@@H]1Oc1ccc(CP(=O)(O)CCC)cc1)c1ccc(C)cc1"
  result unit: "M⁻¹ s⁻¹"
  Ratio: 906000
- compound: "CCC[C@@H](NC(=O)N1C(=O)C(CC)(CC)[C@@H]1Oc1ccc(CP(C)(=O)O)cc1)c1ccc(C)cc1"
  result unit: "M⁻¹ s⁻¹"
  Ratio: 417000
- compound: "C=CCP(=O)(Cc1ccc(O[C@@H]2N(C(=O)N[C@H](CCC)c3ccc(C)cc3)C(=O)C2(CC)CC)cc1)OCC (some centres undefined)"
  result unit: "M⁻¹ s⁻¹"
  Ratio: "1.33e+06"

Ratio reading for `C=CCP(=O)(O)Cc1ccc(O[C@@H]2N(C(=O)N[C@H](CCC)c3ccc(C)cc3)C(=O)C2(CC)CC)cc1` : 740000

# Ratio (compound: CCC[C@@H](NC(=O)N1C(=O)C(CC)(CC)[C@@H]1Oc1ccc(CP(=O)(CCC)OC(OC(=O)CC)C(C)C)cc1)c1ccc(C)cc1 (some centres undefined) ) is 1.05e+06

Briefly, Ratio measured for `CCC[C@@H](NC(=O)N1C(=O)C(CC)(CC)[C@@H]1Oc1ccc(CP(=O)(O)c2ccccc2)cc1)c1ccc(C)cc1` : 1.17e+06

---

Test system: Cricetinae gen. sp.
procedure text: In vivo inhibition in HLE-induced hamster lung hemorrhage when given orally at 10 mg/kg, 2 hr before challenge by HLE
Format: functional
setup conditions: route oral
Listing of entries alongside the reported inhibition in vivo at 10 mg/kg.
// return numeric value only (unit: %, not printed)

# count of solved cases: 5
- molecule: "CCC[C@@H](NC(=O)N1C(=O)C(CC)(CC)[C@@H]1Oc1ccc(CP(=O)(O)c2ccccc2)cc1)c1ccc(C)cc1"
  result unit: "%"
  measured number: 27
- molecule: "CCC[C@@H](NC(=O)N1C(=O)C(CC)(CC)[C@@H]1Oc1ccc(CP(=O)(OCC)OCC)cc1)c1ccc(C)cc1"
  result unit: "%"
  measured number: 15
- molecule: "C=CCP(=O)(Cc1ccc(O[C@@H]2N(C(=O)N[C@H](CCC)c3ccc(C)cc3)C(=O)C2(CC)CC)cc1)OCC (some centres not stated)"
  result unit: "%"
  measured number: 64
- molecule: "CCC[C@@H](NC(=O)N1C(=O)C(CC)(CC)[C@@H]1Oc1ccc(CP(=O)(O)O)cc1)c1ccc(C)cc1"
  result unit: "%"
  measured number: 17
- molecule: "C=CCP(=O)(O)Cc1ccc(O[C@@H]2N(C(=O)N[C@H](CCC)c3ccc(C)cc3)C(=O)C2(CC)CC)cc1"
  result unit: "%"
  measured number: 19

Reading of inhibition in vivo at 10 mg/kg for `CCC[C@@H](NC(=O)N1C(=O)C(CC)(CC)[C@@H]1Oc1ccc(CP(=O)(O)CCC)cc1)c1ccc(C)cc1` with Cricetinae gen. sp.: 15

Form field inhibition in vivo at 10 mg/kg for item `CCC[C@@H](NC(=O)N1C(=O)C(CC)(CC)[C@@H]1Oc1ccc(CP(C)(=O)O)cc1)c1ccc(C)cc1` on Cricetinae gen. sp.: -59
